Origin of values: patent US20250101127A1

Below, each of the binders is paired with its reported Capan-2 cell surface binding (%) value.
- ASSAY SYSTEM: T1, MUC1 (Mucin-1) as expressed by human cancer cell lines (human, UniProt P15941 24-1255)
- T1 construct: whole, on cells; Endogenous antigen on the cell surface (flow cytometry) or in cell lysates (immunoprecipitation, western blot); also called MUC1 antigen; antigen recognized by the MP1 monoclonal antibody
- T1 sequence (P15941 24-1255): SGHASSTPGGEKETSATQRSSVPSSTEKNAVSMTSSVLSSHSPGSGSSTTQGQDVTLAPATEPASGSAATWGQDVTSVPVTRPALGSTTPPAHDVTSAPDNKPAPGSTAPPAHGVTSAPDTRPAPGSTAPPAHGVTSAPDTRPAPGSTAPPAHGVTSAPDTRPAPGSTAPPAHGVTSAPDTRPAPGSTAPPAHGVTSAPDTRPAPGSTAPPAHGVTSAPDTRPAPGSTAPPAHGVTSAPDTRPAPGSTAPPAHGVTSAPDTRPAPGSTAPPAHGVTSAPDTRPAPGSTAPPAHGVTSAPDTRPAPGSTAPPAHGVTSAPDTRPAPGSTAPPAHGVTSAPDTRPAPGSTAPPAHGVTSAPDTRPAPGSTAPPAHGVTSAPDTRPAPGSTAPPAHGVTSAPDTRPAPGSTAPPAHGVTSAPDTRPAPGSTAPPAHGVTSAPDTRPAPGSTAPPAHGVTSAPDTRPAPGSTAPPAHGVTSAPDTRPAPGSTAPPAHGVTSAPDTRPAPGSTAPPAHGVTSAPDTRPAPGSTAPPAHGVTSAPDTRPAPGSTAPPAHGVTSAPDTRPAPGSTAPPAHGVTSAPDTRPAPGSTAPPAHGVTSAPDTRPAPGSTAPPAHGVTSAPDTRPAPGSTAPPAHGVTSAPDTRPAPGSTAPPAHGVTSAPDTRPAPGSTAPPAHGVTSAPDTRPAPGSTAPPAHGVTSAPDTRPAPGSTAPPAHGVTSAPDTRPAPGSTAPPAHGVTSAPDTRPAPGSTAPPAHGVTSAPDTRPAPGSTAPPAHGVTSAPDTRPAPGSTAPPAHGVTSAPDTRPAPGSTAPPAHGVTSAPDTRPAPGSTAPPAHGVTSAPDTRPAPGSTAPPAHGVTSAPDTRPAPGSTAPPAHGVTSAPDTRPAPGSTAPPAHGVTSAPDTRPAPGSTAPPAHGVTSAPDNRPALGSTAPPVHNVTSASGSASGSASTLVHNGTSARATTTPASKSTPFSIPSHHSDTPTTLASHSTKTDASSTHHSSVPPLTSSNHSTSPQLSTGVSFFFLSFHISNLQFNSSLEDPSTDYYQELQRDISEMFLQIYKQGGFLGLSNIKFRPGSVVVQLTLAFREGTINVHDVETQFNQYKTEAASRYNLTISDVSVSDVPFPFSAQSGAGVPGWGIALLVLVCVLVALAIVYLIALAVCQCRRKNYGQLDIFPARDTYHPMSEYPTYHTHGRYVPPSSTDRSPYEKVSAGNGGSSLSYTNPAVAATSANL
- METHOD: flow cytometry, Capan-2 cells stained with transient-expression culture solution; positive rate against the negative control
Field format: number, assumed %, no unit text.

BINDER: humanized MP1 antibody VH4/VL2 (antibody, V domains shown, tested as ExpiCHO-S culture solution) VH: EVKVVESGGGLVQPGGSLRLSCAASGITFSDYWMNWVRQAPGKGLEWVAQIRNKPYNYETYYSNSVKGRFTISRDDAKSSVYLQMSSLRAEDTAVYYCTWAMITSDGYAMDYWGQGTLVTVSS VL: DIVMTQSPDSLAVSLGERATISCKSSQSVLLSSNQKNYLAWYQQKPGQPPKLLIYWASTRESGVPDRFSGSGSGTEFTLTISSLQAEDVAVYYCQQSFSYPLTFGQGTKLEIK
UNIT LABEL: %
Capan-2 cell surface binding (%): 7.2

Turning now to a further record.
// humanized MP1 antibody VH4/VL8 (antibody, V domains shown, tested as ExpiCHO-S culture solution) VH: EVKVVESGGGLVQPGGSLRLSCAASGITFSDYWMNWVRQAPGKGLEWVAQIRNKPYNYETYYSNSVKGRFTISRDDAKSSVYLQMSSLRAEDTAVYYCTWAMITSDGYAMDYWGQGTLVTVSS VL: DIVMTQSPLSLPVTPGEPASISCRSSQSLLLSSNQKNYLAWYLQKPGQSPQLLIYWGSTRESGVPDRFSGSGSGTDFTLKISRVEAEDVGVYYCQQSFSYPLTFGQGTKLEIK : Capan-2 cell surface binding (%) value = 11.4
